Origin of the recorded values: patent US10927107B2

# method description: Rat pharmacokinetics
# Format: in vivo
# Design: concentration or dose not given beside the values
# condition notes: plasma, po
outcome measure: AUC(0-t)
Note: a bare number is incomplete; add the unit.

INPUT: Please report AUC(0-t) for the following compound: COc1ccc2c(c1)c1c(n2CO)CN2CCc3cc(OCc4ccccc4)c(OC)cc3C2C1 (centres unmarked)
OUTPUT: 334 ng·h/mL

INPUT: Complete the entry with AUC(0-t) for COc1ccc2c(c1)c1c(n2CO)CN2CCc3cc(OC)c(OCc4ccccc4)cc3C2C1 (centres unmarked)
OUTPUT: 776 ng·h/mL

###

# method description: Rat pharmacokinetics
# Format: in vivo
# Design: concentration or dose not given beside the values
# condition notes: plasma, iv, read-out: AUCINF—obs
outcome measure: AUC(0-inf) (ng·h/mL)
Answer in ng·h/mL, number only, no unit symbol.

INPUT: In one line, give reported AUC(0-inf) of the entry COc1ccc2c(c1)c1c(n2CO)CN2CCc3cc(OC)c(OCc4ccccc4)cc3C2C1 (centres unmarked) [Example A1] .
OUTPUT: 1980

Proceeding to the next molecule to report its AUC(0-inf).
INPUT: Give AUC(0-inf) for the following molecule: COc1ccc2c(c1)c1c(n2CO)CN2CCc3cc(OCc4ccccc4)c(OC)cc3C2C1 (centres unmarked) [Example A55]
OUTPUT: 2730

###

Listed next: entries and their corresponding Tmax.
# method description: Rat pharmacokinetics
# Format: in vivo
# condition notes: in vivo, po, i.g
Numeric answer only, unit h assumed.

INPUT: Report Tmax, nothing else, for this compound: COc1ccc2[nH]c3c(c2c1)CC1c2cc(OC)c(OCc4ccc(C(F)(F)F)cc4)cc2CCN1C3 (centres unmarked) [Example C47]
OUTPUT: 4

More entries:
INPUT: Return reported Tmax. Input compound: COc1ccc2[nH]c3c(c2c1)CC1c2cc(OCc4ccc(C(F)(F)F)cc4)c(OC)cc2CCN1C3 (centres unmarked) [Example C3]
OUTPUT: 4

###

# target entity: α1A-adrenergic receptor (α1A-AR) (Homo sapiens, UniProt P35348)
# Construct: expressed in transfected cells; host or cells: HEK293
# Sequence (P35348 1-466): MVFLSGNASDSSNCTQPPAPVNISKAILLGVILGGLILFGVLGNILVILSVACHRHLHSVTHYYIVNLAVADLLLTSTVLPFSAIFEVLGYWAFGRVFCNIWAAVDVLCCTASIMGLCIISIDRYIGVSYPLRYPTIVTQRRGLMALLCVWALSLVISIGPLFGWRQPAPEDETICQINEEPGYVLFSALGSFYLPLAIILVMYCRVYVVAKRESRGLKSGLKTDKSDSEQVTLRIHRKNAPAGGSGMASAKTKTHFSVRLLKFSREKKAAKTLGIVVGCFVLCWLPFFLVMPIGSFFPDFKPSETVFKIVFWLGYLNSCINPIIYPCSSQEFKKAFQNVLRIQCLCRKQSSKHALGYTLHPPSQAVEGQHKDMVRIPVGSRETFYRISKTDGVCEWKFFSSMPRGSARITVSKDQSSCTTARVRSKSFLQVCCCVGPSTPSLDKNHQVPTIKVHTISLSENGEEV
# method description: Antagonistic activity on α1A-AR: calcium fluorescence in HEK293 cells stimulated with phenylephrine
# Format: cell-based
# condition notes: HEK293 cells expressing α1A-AR; agonist phenylephrine 30 nM; calcium fluorescence; read-out: α1A-AR/IC50
Listed here are compounds together with their documented pIC50.
Note on pIC50: it is the negative log10 of concentration, concentration in mol/L.

INPUT: State the measured pIC50 (α1A-adrenergic receptor (α1A-AR) (Homo sapiens, UniProt P35348)) of COc1ccc2[nH]c3c(c2c1)CC1c2cc(OC)c(OCc4ccc(F)cc4)cc2CCN1C3 (stereo not drawn)
OUTPUT: 5.18

INPUT: Look up and report measured pIC50 (α1A-adrenergic receptor (α1A-AR) (Homo sapiens, UniProt P35348)) for the following compound: COc1ccc2c(c1)c1c(n2CO)CN2CCc3cc(OCc4ccccc4F)c(OC)cc3C2C1 (stereo not drawn)
OUTPUT: 4.24

Others:
INPUT: Give pIC50; test system α1A-adrenergic receptor (α1A-AR) (Homo sapiens, UniProt P35348); compound COc1ccc2[nH]c3c(c2c1)CC1c2cc(OC)c(OCc4ccccc4F)cc2CCN1C3 (stereo not drawn)
OUTPUT: 4.76

INPUT: Lab note: α1A-adrenergic receptor (α1A-AR) (Homo sapiens, UniProt P35348) assay, enter pIC50 for COc1ccc2c(c1)c1c(n2CO)CN2CCc3cc(OCc4cccc(F)c4)c(OC)cc3C2C1 (stereo not drawn) here
OUTPUT: 5.34
